Numbers sourced from PubChem BioAssay (NCI).

- System: U251 CNS
- test-protocol: NCI-60 one-dose screen, 48 h (100 = growth as untreated, 0 = no growth, -100 = all killed)
- conditions-used: 10 µM unless noted
- Protocol: Growth inhibition of the U251 human tumor cell line is measured as a screen for anti-cancer activity. Cells are grown in 96 well plates and exposed to the test compound for 48 hours. Compounds are tested at a single concentration, which is 10^-5 M for most compounds. The reported endpoint is percent growth (GI% or GIPRCNT), where numbers from 0 - 100% represent growth inhibition, and numbers from -100% - 0 represent cell death. For example, a value of 40 represents 60% growth inhibition. […]
This is part of a sample that, as a whole, favours compounds with a hit. Of some 83,000 tested, about 20% had one in any assay.
Exercise: state measured growth for each of the compounds provided.
One number for each entry, in %.

Worked cases, growth given:
compound	measured-target	growth [%]
COC(=O)CCC1=C(C)C(C)=N/C1=C\c1[nH]c(-c2ccc[nH]2)cc1OC	U251 CNS	-22.9
Cc1scc2c1N(C(=O)CN1CCN(C)CC1)c1ccccc1NC2=O	U251 CNS	99.6
C=Cc1nn2c(CCC(=O)c3nc4ccccc4[nH]3)nnc2s1	U251 CNS	104
Cc1ccc(NC(=O)COC(=O)c2ccc(S(=O)(=O)N3CCCCCC3)cc2)cc1	U251 CNS	104
CO[C@H]1CC(O[C@@H]2/C(C)=C/C[C@@H]3C[C@@H](C[C@]4(CC[C@H](C)[C@@H](C5CCCCC5)O4)O3)OC(=O)[C@@H]3C=C(C)/C(=N/O)[C@H]4OC/C(=C\C=C\[C@@H]2C)[C@]43O)O[C@@H](C)C1O (some centres undefined)	U251 CNS	-87.6

Please supply growth for each of the following items, keeping them in order.
1. Cc1cc(C)n(C(=O)c2nn(-c3ccc(Cl)cc3)cc2O)n1
2. COc1ccc(-c2nn(-c3ccccc3)cc2/C=C2\SC(=S)N(CCc3ccc(O)cc3)C2=O)cc1
3. N#Cc1c(N)[nH]c(S)c1C#N
4. Nc1nonc1-c1nc2ccccc2n1CC(=O)Nc1ccc2c(c1)COC2=O

Output line:
1. 19.4
2. 90.5
3. 101
4. 94.4

---

Kindly state growth for each of the entries shown.
- Tested on: 786-0 renal
- test-protocol: NCI-60 one-dose screen, 48 h (100 = growth as untreated, 0 = no growth, -100 = all killed)
- conditions-used: 10 µM unless noted
About 83,000 compounds went through this panel and 20% of them were active in at least one assay; those are over-represented in the sample as a whole.
Numbers only, in %.

>>> df
                             compound  measurement
0  CN(C(=O)c1ccccc1)N(C)C(=O)c1ccccc1          100

List growth for every entry below, keeping the order given.
1. O=[N+]([O-])c1ccc(N/N=C\c2ccccc2[N+](=O)[O-])nc1
2. COc1ccc(-c2noc(N)c2-c2cc(OC)c3c(c2)OCO3)cc1
3. O=c1c(O)cccn1CCCNCCCN(CCCn1cccc(O)c1=O)CCCn1cccc(O)c1=O
4. N#Cc1c2ccccc2c2n1-c1ccccc1OC(c1ccccc1)C2=O (stereo not given)
5. O=C(/C(=C/c1cccc([N+](=O)[O-])c1)c1ccccc1)c1ccccc1
6. O=C1CCCN1C1CCN(Cc2cc3ccccc3[nH]c2=O)c2ccccc21 (stereo not given)

Output line:
1. 104
2. 59.7
3. 107
4. 31.7
5. 68.4
6. 85.2

Record growth per entry; entries follow.
1. C=Cc1nn2c(CCC(=O)c3nc4ccccc4[nH]3)nnc2s1
2. CN(C)c1ccc2[nH]c3c(C(N)=O)cc(=O)c(=O)c=3oc2c1
3. C=C(C[C@@](O)(C(=O)Oc1ccccc1)C(=O)C1CCCCC1)c1ccccc1

Output line:
1: 97.5; 2: 80.4; 3: 98.9
